Would you kindly list apparent KD of MS2 coat protein for each of these sequences?
- System: MS2 coat protein
- protocol: apparent KD of MS2 coat protein; designed switch direction (-1 OFF switch, 1 ON switch): -1; higher = weaker reporter binding
- condition.parameters: input ligand: none

# apparent KD of MS2 coat protein (sequence: AACUUCUGAGGAUAUACAUAGAUUUACAUGAGGAUCACCCAUGUUCCUCUAUGUAUAAAUGUAGAAGGCAGAAGAA [JL-ex5-4.37 Malcolm mod] (Eterna round: R97, puzzle: Exclusion 5) ) is 18.3 nM

Consider GAAAACGCAGAGGAUAUUUCAGAUCAAAGCUGCAAAGAAGGCUGCACAUGAGGAUCACCCAUGUGGUCUUCAAA [jl-ex6-4.02 ViennaUCT mod] (Eterna round: R97, puzzle: Exclusion 6) . Its measured apparent KD of MS2 coat protein is 20.7 nM

Kindly note the recorded apparent KD of MS2 coat protein for ACAUGAGGAUCACCCAUGUGACCACGAUGGCUGAUGUAGAGAUAGGAUAUGUGUGAAUAUCUAUCACAGAAGGAUCUUGACUGG [Deportation 53 - Jieux - Exclusion NG 3] (Eterna round: R96, puzzle: Exclusion NG 3) , which is 28.5 nM

apparent KD of MS2 coat protein recorded for this sequence, ACCUCACUUGAGGAUCACCCAAGUCAGGAUAUACUCGUUUGCCGCACGACGCGGCAUUGUAGAAGGGACGGGUU [Arveatat] (Eterna round: R97, puzzle: Exclusion 1) , is 17.9 nM

Entry UCACCGCAAGGAUAUACUUGCGGUGAUGCUCGAAAUCUUCUACUUGAGGAUCACCCAAGUAGAAGGUGCGGUGA [jl-ex2.4.67 ViennaUCT mod] (Eterna round: R97, puzzle: Exclusion 2) ; apparent KD of MS2 coat protein = 12.1 nM

----------
- Tested on: MS2 coat protein
- protocol: apparent KD of MS2 coat protein; designed switch direction (-1 OFF switch, 1 ON switch): -1; higher = weaker reporter binding
- condition.parameters: input ligand: microRNA oligo, concentration not stated
Tick TRUE if apparent KD of MS2 coat protein is 20 nM or greater. Tick FALSE if apparent KD of MS2 coat protein is less than 20 nM.

Q: Identify whether the reported apparent KD of MS2 coat protein of the following sequence is 20 nM or greater: GCACGGUUGGUAGGAUAUCCUUGCGAUUAGCAAGGAGAAGGACCACAUGAGGAUCACCCAUGUACCUCAAUUAUCCUUCCGUGC [Eli exng1 - 025] (Eterna round: R96, puzzle: Exclusion NG 1)
A: FALSE

Q: Form field: apparent KD of MS2 coat protein at least 20 nM? Entry: GAUCCUUUGACGGACGUCUCGAAACAUGAGGAUCACCCAUGUGAGGAUAUCUCCGAGAGGUCGGCAGAGAAGGCACAUGAACAA [MOD3 Eternabot solution 19 score 84.66] (Eterna round: R96, puzzle: Exclusion NG 3)
A: FALSE

Q: Quick check, apparent KD of MS2 coat protein >= 20 nM? GCGCCAUCGUGAGAUGGCGUAAUUACAUGAGGAUCACCCAUGUAGGAUAUCGAUUGCUUUGCAGUCGAGAAGGGCAUGUUUUGU [JL ENG3 3.85] (Eterna round: R96, puzzle: Exclusion NG 3)
A: TRUE

Q: Determine whether measured apparent KD of MS2 coat protein meets or exceeds 20 nM for UAAUGUGCGAGAGGAUAUCGUGUACAAAGUACACGAGAAGGCUUCACAUGAGGAUCACCCAUGUACCGAGGUGAAACACCUUGG [Omei Exc(NG)1 Bv1] (Eterna round: R96, puzzle: Exclusion NG 1)
A: TRUE

Q: Reported apparent KD of MS2 coat protein at or above 20 nM? GUCAGCUCGUGAGGAUAUACAUGCGUGCUUCGGCACGUAUGAUAGAUCACAUGAGGAUCACCCAUGUAGAAGGCACGAGCUGAC [ENG2/4-A1] (Eterna round: R96, puzzle: Exclusion NG 2)
A: FALSE

Q: Threshold query (apparent KD of MS2 coat protein >= 20 nM) on CAUGUCCAACGAGGAUAUGGGACAGGAAGUGUACCAGAAGGCGUACGGACAUGAGGAUCACCCAUGUCGCGCGGUGCGAUGUGG [MOD Nando EXNG 1.1] (Eterna round: R96, puzzle: Exclusion NG 1)
A: TRUE

Q: Determine whether this sequence has apparent KD of MS2 coat protein no lower than 20 nM: UUAUUAAAUGUAGGAUAUGCAUAUUAUUAUUAUGCAGAAGGACAUGAGGAUCACCCAUGUAUAUUAUUAUUAUAUAUUAUAUAU [Title] (Eterna round: R96, puzzle: Exclusion NG 1)
A: TRUE

Q: Given AGGUACUUCAGGAGACAUGAGGAUCACCCAUGUUGAGUUAGCGAGGAUAUCGGUAACCAUUGUUAUGAGAAGGCGCAAACCAGA [Ex NG3 #42] (Eterna round: R96, puzzle: Exclusion NG 3) , state whether its apparent KD of MS2 coat protein is at least 20 nM.
A: FALSE

Q: Check this sequence for apparent KD of MS2 coat protein at or above 20 nM: UAUAUAUAGUAAGGAUAUGUAAUUAUUUUAUUAACAGAAGGUACUGACAUGAGGAUCACCCAUGUUUUAGUGUGGGCAUGUAGA [JMF's solution 47] (Eterna round: R96, puzzle: Exclusion NG 1)
A: TRUE

Q: Is apparent KD of MS2 coat protein at least 20 nM? Consider ACAUGAGGAUCACCCAUGUCUGGCUGGUCCGCUCCGGCUGUUGAGGAUAUAGCUCGGUGUCCGCGCUAGAAGGUGAGGGCCGGC [Aenatbe mod 33] (Eterna round: R96, puzzle: Exclusion NG 3)
A: FALSE

Q: Quick check, apparent KD of MS2 coat protein >= 20 nM? UACAUGAGGAUCACCCAUGUUUUGUCGUGUAUGGUAUUUAUCUAGGAUAUCAGUUUAUUUAUUUAUGAGAAGGAGAAUAUUAAU [JMF's solution 7] (Eterna round: R96, puzzle: Exclusion NG 3)
A: TRUE

Q: Check this sequence for apparent KD of MS2 coat protein at or above 20 nM: UUCUUUAUACGAGGAUAUCAUACAUGAGGAUCACCCAUGUGGCUGGGUCUGUUUUUAUAUAAUAUUGAGAAGGCGUUUUGCUAU [JR_ExcNG2_Sub072] (Eterna round: R96, puzzle: Exclusion NG 2)
A: TRUE

Q: Could you verify whether the entry GAGCCAUCGUGAGAUGGCUCAAUUACAUGAGGAUCACCCAUGUAGGAUAUCGAUUGCUUUGCAGUCGAGAAGGACAUGUUUAAU [JL ENG3 3.00] (Eterna round: R96, puzzle: Exclusion NG 3) shows apparent KD of MS2 coat protein of no less than 20 nM?
A: TRUE

Q: Hello, I need to know if GUAAUUAAUGUAGGAUAUGCAAGGCGAACCUAAGCAGAAGGACAUGUGGAUCACCCAUGACAUGAGGAUCACCCAUGUAUCGCU [salish99_ExNG1_r4_005] (Eterna round: R96, puzzle: Exclusion NG 1) has measured apparent KD of MS2 coat protein not below 20 nM. Thanks!
A: TRUE

Q: Test whether the sequence AUAAUUAAUGCAGGAUAUCAGCACGUGUAGUGCUGAGAAGGGCACAUGAGGAUCACCCAUGUGAUCAAUUAAUAUUAAUAUUAU [ENG1/11-D3] (Eterna round: R96, puzzle: Exclusion NG 1) records apparent KD of MS2 coat protein of 20 nM or higher.
A: TRUE

Q: API: above_or_equal(metric=apparent KD of MS2 coat protein, cutoff=20 nM) for item AUGGUUCGGUCAGGAUAUCGUAGAUUGAAUAGUAUGAUUUACAUGAGGAUCACCCAUGUUACAUACGAGAAGGGACCGAAUCAU [JR_ExcNG2_Sub024] (Eterna round: R96, puzzle: Exclusion NG 2)
A: FALSE

Q: Please check the record AAAAGGCAGGGAGGAUAUGCUUACCUGGGUCGUCUUCAAACAUGAGGAUCACCCAUGUAGUCGACGCAGAAGGCCCUCAAAGCC [Mat - Exclusion NG 2 - Mod of JL - D58] (Eterna round: R96, puzzle: Exclusion NG 2) and state if its apparent KD of MS2 coat protein is at or above 20 nM.
A: TRUE
